The following compounds each carry a recorded Ki for Prothrombin (Homo sapiens).
MEASUREMENT_LABEL: Ki (nM)

CC(C)(C)Nc1nc(Cl)c2n(c1=O)[C@H](C(=O)NCc1ccc(C(=N)N)cc1)CC2(C)C ... 220

1: CCCNc1cnc2n(c1=O)[C@H](C(=O)NCc1ccc(C(=N)N)cc1)CC2(C)C
2: CC1(C)C[C@@H](C(=O)NCc2ccc(C(=N)N)cc2)n2c1c(Cl)nc(NC1CCC1)c2=O
Asked: Select one. Lower Ki: 1 or 2 API: response body contains the label of the selected item.
Given back: 2
(2: 200 nM, 1: 1800 nM)

P: CCCNc1cnc2n(c1=O)[C@H](C(=O)NCc1ccc(C(=N)N)cc1)CC2
Q: C=CC[C@]1(C)C[C@@H](C(=O)NCc2ccc(C(=N)N)cc2)n2c1c(Cl)nc(NC1CCC1)c2=O
R: CC1(C)C[C@@H](C(=O)NCc2ccc(C(=N)N)cc2)n2c1c(Cl)nc(NC1CC1)c2=O
Asked: # rank by Ki, ascending (min first) Order the labels as requested and list them.
Given back: P, Q, R
(P: 150 nM, Q: 220 nM, R: 360 nM)

---

ASSAYED_SYSTEM: Coagulation factor VII/tissue factor (Homo sapiens, UniProt P08709)
Sequence (P08709 61-212 limits assumed): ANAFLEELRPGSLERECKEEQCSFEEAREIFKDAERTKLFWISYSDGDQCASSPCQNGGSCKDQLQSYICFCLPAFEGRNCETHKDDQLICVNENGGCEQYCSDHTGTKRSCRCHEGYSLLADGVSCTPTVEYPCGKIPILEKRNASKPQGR
Sequence (P08709 213-466 limits assumed): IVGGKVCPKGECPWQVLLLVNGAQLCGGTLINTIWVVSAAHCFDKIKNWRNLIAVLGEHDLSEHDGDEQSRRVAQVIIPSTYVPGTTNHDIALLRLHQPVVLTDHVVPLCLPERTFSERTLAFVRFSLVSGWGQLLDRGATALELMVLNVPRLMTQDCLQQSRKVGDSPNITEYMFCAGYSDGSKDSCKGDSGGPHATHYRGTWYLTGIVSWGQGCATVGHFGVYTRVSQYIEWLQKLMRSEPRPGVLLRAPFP
Sequence (P13726 33-295 partner limits assumed): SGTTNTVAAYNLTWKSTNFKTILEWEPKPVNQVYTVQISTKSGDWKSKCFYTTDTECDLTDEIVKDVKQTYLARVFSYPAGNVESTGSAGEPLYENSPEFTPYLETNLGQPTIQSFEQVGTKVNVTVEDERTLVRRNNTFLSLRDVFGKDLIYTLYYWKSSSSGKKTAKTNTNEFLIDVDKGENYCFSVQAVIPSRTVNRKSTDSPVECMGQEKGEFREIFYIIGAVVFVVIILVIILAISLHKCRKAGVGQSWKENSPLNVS
PROTOCOL_TEXT: Inhibition of tissue factor-factor 7a (unknown origin) interaction by chromogenic substrate assay
MEASUREMENT_LABEL: Ki (nM)

CC1(C)C[C@@H](C(=O)NCc2ccc(C(=N)N)cc2)n2c1c(Cl)nc(NC1CCC1)c2=O ... 23
CCC1(CC)C[C@@H](C(=O)NCc2ccc(C(=N)N)cc2)n2c1c(Cl)nc(NC1CCC1)c2=O ... 7.3
C=CC[C@]1(C)C[C@@H](C(=O)NCc2ccc(C(=N)N)cc2)n2c1c(Cl)nc(NC1CCC1)c2=O ... 5.8
CC(C)CNc1nc(Cl)c2n(c1=O)[C@H](C(=O)NCc1ccc(C(=N)N)cc1)CC2(C)C ... 43
CCCNc1cnc2n(c1=O)[C@H](C(=O)NCc1ccc(C(=N)N)cc1)CC2(CCC)CCC ... 620
CC1(C)C[C@@H](C(=O)NCc2ccc(C(=N)N)cc2)n2c1c(Cl)nc(NC1CC1)c2=O ... 37

1: CCCNc1cnc2n(c1=O)[C@H](C(=O)NCc1ccc(C(=N)N)cc1)CC2
2: COCC(C)Nc1nc(Cl)c2n(c1=O)[C@H](C(=O)NCc1ccc(C(=N)N)cc1)CC2(C)C (stereo partly drawn)
3: CCCNc1cnc2n(c1=O)[C@H](C(=O)NCc1ccc(C(=N)N)cc1)CC2(CC)CC
Asked: Arrange the 3 molecules from largest to smallest Ki. Order the labels as requested and list them.
Given back: 1, 2, 3

I: CC(C)(C)Nc1nc(Cl)c2n(c1=O)[C@H](C(=O)NCc1ccc(C(=N)N)cc1)CC2(C)C
II: CCCC1(CCC)C[C@@H](C(=O)NCc2ccc(C(=N)N)cc2)n2c1c(Cl)nc(NC1CCC1)c2=O
Asked: In the pair I and II , the larger recorded Ki belongs to which? API: response body contains the label of the selected item.
Given back: I

P: CC1(C)C[C@@H](C(=O)NCc2ccc(C(=N)N)cc2)n2c1c(Cl)nc(NC1CCCC1)c2=O
Q: CCCNc1cnc2n(c1=O)[C@H](C(=O)NCc1ccc(C(=N)N)cc1)CC2(C)C
Asked: Select one. Lower Ki: P or Q API: response body contains the label of the selected item.
Given back: P
